Provenance of the data: ChEMBL document CHEMBL1157539

In this section we review reported Inhibition values for a set of compounds.
- Test system: HepG2
- MEASUREMENT_PROTOCOL: GSK_TCMDC: Percent inhibition of human HepG2 cell line. Test compounds present at 10uM.
- Assay type: functional
READOUT_LABEL: Inhibition (%)

* N#CC(c1ccc(Br)cc1)c1ccc2c(C(F)(F)F)cc(C(F)(F)F)nc2n1 (configuration not stated) | 75
* CS(=O)(=O)c1ccc(CNCc2ccc(-c3cccc(-c4nc5ccccc5[nH]4)c3)cc2)cc1.O=C(O)C(F)(F)F | 17
* O=C(N[C@H]1CCN(Cc2ccc(OCCN3CCNCC3)c(Br)c2)C1)c1ccc(Cl)c(Cl)c1.O=C(O)C(F)(F)F | 69
* Br.Oc1cccc2c1CC(NCc1ccccc1)CC2 (configuration not stated) | 4
* Cc1cc(NC(=O)NCCN2CCC(NS(=O)(=O)c3ccccc3F)CC2)c2ccccc2n1 | 0
* S=C(NCCCCCN1CCC(c2c[nH]c3ccccc23)CC1)Nc1ccc(Cl)c(Cl)c1 | 89
* Cc1nnsc1C(=O)Nc1cccc(-c2cccc(-c3nc4cc(F)ccc4[nH]3)c2)c1 | 35

###

In this section we review reported Inhibition values for a set of compounds.
- Test system: HepG2
- MEASUREMENT_PROTOCOL: GSK_TCMDC: Percent inhibition of human HepG2 cell line. Test compounds present at 10uM.
- Type: functional
READOUT_LABEL: Inhibition (%)

• C#CCNC(=O)c1ccc(-c2ccnc(Nc3cccc(CCCN4CCOCC4)c3)n2)s1 = 54
• O=C(NC1CCCCC1)N(Cc1cccc(-c2cccc(CNC3CCCC3)c2)c1)C1CCN(Cc2ccccc2)CC1.O=C(O)C(F)(F)F = 64
• CC(C)CNCc1ccc(-c2cccc(CNC3CCN(Cc4ccccc4)CC3)c2)cc1.O=C(O)C(F)(F)F = 34
• Cc1cc(=NN=Cc2ccccc2Cl)c2cc(C(F)(F)F)ccc2[nH]1 = 0

###

- Tested on: Plasmodium falciparum
- MEASUREMENT_PROTOCOL: GSK_TCMDC: Inhibition of Plasmodium falciparum Dd2 in whole red blood cells, using parasite LDH activity as an index of growth. Test compounds present at 2uM
- Format: functional
READOUT_LABEL: Inhibition (%)

* CCN1CCN(C(=O)NC(C(=O)N(C)Cc2ccc(-c3ccc(C(F)(F)F)cc3)cc2)c2cccs2)C(=O)C1=O (configuration not stated) | 95
* Cc1cc(N[C@@H](CC(C)C)C(=O)NCc2cccc(F)c2)nc(Nc2ccccc2)n1.O=C(O)C(F)(F)F | 76
* CCCCCCN(CCCCCC)CCCCNc1c2ccc(Cl)cc2nc2ccc(OC)cc12.Cl | 94
* N#Cc1ccccc1C(=O)N(Cc1cncn1Cc1cccc(F)c1)CC1CC1 | 92
* CCCCN(CCCC)CCNC(=O)c1cc(OC(F)(F)F)ccc1O | 90
* Cn1cncc1C(=O)Nc1cccc(-c2csc(-c3nc4ccccc4[nH]3)c2)c1 | 64
* Nc1ncc(-c2ccc3[nH]ccc3c2)c2ccc(-c3ccncc3)cc12 | 100
* N#Cc1ccc(N2CCN(Cc3cccc(-c4cccc(-c5nc6cc(C(F)(F)F)ccc6[nH]5)c4)c3)CC2)nc1.O=C(O)C(F)(F)F | 50
* COCCN1CCN(Cc2ccc(-c3cccc(-c4nc5ccccc5[nH]4)c3)cc2)CC1.O=C(O)C(F)(F)F | 10
* CCCc1ccccc1Nc1nc(C)cc(N(CC)CCCN2CCCCC2)n1.O=C(O)C(F)(F)F | 49
* COc1cccc(C2CCN(CCN3CCC(NC(=O)c4ccc(-c5ccc(C#N)cc5)cc4)CC3)CC2)c1 | 47
* COc1ccc(Nc2nc(NC3CCN(Cc4ccccc4)CC3)cc(-c3ccncc3)n2)cc1 | 40
* Cn1cccc1C(=O)Nc1cccc(-c2nn3ccccc3c2-c2ccnc(Nc3ccc4c(c3)OCCO4)n2)c1 | 27
* CC1(C)C(N(O)C(=O)Nc2ccc(Cl)c(Cl)c2)N(c2ccc(Cl)c(Cl)c2)C(=O)N1CCc1ccccc1 (configuration not stated) | 93
* COc1cc2nc(N3CCC(CNC(=O)c4ccc(-c5ccc(Cl)cc5)cc4)CC3)nc(N)c2cc1OC | 100
* Nc1nc(N)c2c(Oc3cccc4ccccc34)cccc2n1 | 10
* Cc1cc2nc(-c3ccc(C(=O)NCc4cccc(C(F)(F)F)c4)cc3)[nH]c2cc1C | 34
* Cc1ccc(-c2nc(Nc3ccncc3)c3ccccc3n2)s1 | 34
* COc1ccc2c(OC)cccc2c1CNCCCCCCNCc1c(OC)ccc2c(OC)cccc12.CS(=O)(=O)O | 28
* CCc1nc(N)nc(N)c1CCCOc1ccccc1Cl.Cl | 13
* O=C(COc1ccccc1)Nn1cnc2ccccc21 | 0
* COc1c(C2CCN(CCCCNC(=O)c3ccc(NC(=O)c4ccc(C#N)cc4)cc3)CC2)ccc2c1CCCC2 | 100
* Cc1cccc(-c2nn(-c3ccccc3)c3[nH]c(=O)c(CN4CCSCC4)cc23)c1 | 98
* COc1ccc2c(NN=Cc3ccc(N(C)C)cc3)ccnc2c1 | 100
* COc1ccc2nccc([C@@H](O)CN3CCC(NCc4cnc5c(c4)NC(=O)CS5)C(F)C3)c2c1.Cl (some centres not stated) | 90
* O=C(O)C(F)(F)F.O=[N+]([O-])c1cnc(Nc2ccccc2O)nc1Nc1ccccc1O | 80
* Cc1noc(C)c1-c1cccc(CNCc2cccc(-c3cccc(-c4nc5cc(C(F)(F)F)ccc5[nH]4)c3)c2)c1.O=C(O)C(F)(F)F | 95
